Taken from PubChem BioAssay.

- ASSAY: MRP1 drug-resistance reversers in H69AR cells – cell-based, doxorubicin co-treatment, pilot screen (AID 601)
- CONDITION SET: H69AR cells, CellTiter-Glo, 72 h; compound alone cytotoxicity; at 10 µM
Recorded viability by entry
The answer is to be given in %; state only the numeric part.

Below: 6 compounds and their reported viability.
COMPOUND: Cc1nn(C(=O)c2ccoc2C)c(N)c1-c1ccccc1
U: %
viability: 92.1
--
COMPOUND: N#CCCN1CCN(S(=O)(=O)c2ccc(S(=O)(=O)NC3CCCC3)cc2)CC1
U: %
viability: 107
--
COMPOUND: c1nc(NCC2CCCO2)c2[nH]cnc2n1 (configuration not stated)
U: %
viability: 91.1
--
COMPOUND: COCCOC(=O)C1=C(C)OC(N)=C(C#N)C1c1ccc2c(c1)OCO2 (configuration not stated)
U: %
viability: 84.8
--
COMPOUND: O=C(Cn1c(=O)[nH]c2ccsc2c1=O)NC1CCCCCC1
U: %
viability: 94.3
--
COMPOUND: CN1CCc2c(sc3c2C(=O)NC(c2cccc(OC(=O)c4cccs4)c2)N3)C1 (configuration not stated)
U: %
viability: 85.6

Problem: Requested read-out: viability. Entry: Cn1c(SCC(=O)Nc2ccc(F)cc2)nnc1-c1cccnc1
Solution: 104

Problem: Return reported viability; argument: O=C1c2ccccc2C(Nc2cccnc2)N1Cc1ccccc1Cl (configuration not stated)
Solution: 86.3

Problem: Need viability, item CCOc1ccc(-c2cc(CCCC(=O)N3CCN(c4ccc(OC)cc4)CC3)no2)cc1
Solution: 67.7

Problem: Request the reported viability associated with O=C1c2ccccc2C(Nc2ccc3c(c2)OCCO3)N1Cc1ccc2c(c1)OCO2 (configuration not stated)
Solution: 86.4

Problem: Return reported viability; argument: COc1ccc(S(=O)(=O)Nc2ccc(F)c(Cl)c2)cc1OC
Solution: 96.6

Problem: # input compound: COc1ccccc1S(=O)(=O)Cc1ccc(C(=O)N2CCN(c3ccc(C)cc3)C(C)C2)o1 (configuration not stated) ; wanted: its viability
Solution: 7.92
